Measured values drawn from patent US8859544B2 for this set.

melting point reference
Supply the numeric figure in °C, leaving out any unit text.

Worked examples, 5 molecules total:
structure=CCCn1c(=O)[nH]c2ccc(C(=O)c3c(C)c(OCCOC)c4ccccn34)cc2c1=O unit=°C quantitative_result=215
structure=CCOC(=O)COn1c(=O)[nH]c2ccc(C(=O)c3c(C)c(OC)c4ccccn34)cc2c1=O unit=°C quantitative_result=230
structure=COc1c(C)c(C(=O)c2ccc3[nH]c(=O)n(N)c(=O)c3c2)n2ccccc12 unit=°C quantitative_result=220
structure=COc1c(C)c(C(=O)c2ccc3c(c2)c(=O)n(CC(=O)N(C)C)c(=O)n3C)n2ccccc12 unit=°C quantitative_result=276
structure=COc1c(C)c(C(=O)c2ccc3[nH]c(=O)n(Cc4nc(C)no4)c(=O)c3c2)n2ccccc12 unit=°C quantitative_result=176

Moving on to another molecule below.
stdin: Data request, read-out melting point, for "CNC(=O)c1c[nH]c2ccc(C(=O)c3c(C)c(OC)c4ccccn34)cc2c1=O"
stdout: 324
